# credit: the supplement of paper PMC4466140

# target.desc: CaFus1
# measurement.notes: SPOT peptide array binding signal intensity (averaged, normalized) (arbitrary units (background-subtracted, floor 0; scale differs between SH3 domains)); higher = stronger binding of the SH3 domain to the peptide
measurement.kind: SPOT peptide array binding signal intensity

Item "GAGERPRLVPRPINV" has what recorded SPOT peptide array binding signal intensity?
≤ 0

Item "QPQRTAPKPPISAPR" has what recorded SPOT peptide array binding signal intensity?
≤ 0

Item "VQPTAAPATPPRHIS" has what recorded SPOT peptide array binding signal intensity?
≤ 0
